Listing of recorded FP signal by entry.
# Target: Hsp90 in C. albicans (SC5314) lysate (Candida albicans)
# Construct: endogenous in cells; host or cells: C. albicans SC5314 whole-cell lysate
# Sequence (P46598 whole entry): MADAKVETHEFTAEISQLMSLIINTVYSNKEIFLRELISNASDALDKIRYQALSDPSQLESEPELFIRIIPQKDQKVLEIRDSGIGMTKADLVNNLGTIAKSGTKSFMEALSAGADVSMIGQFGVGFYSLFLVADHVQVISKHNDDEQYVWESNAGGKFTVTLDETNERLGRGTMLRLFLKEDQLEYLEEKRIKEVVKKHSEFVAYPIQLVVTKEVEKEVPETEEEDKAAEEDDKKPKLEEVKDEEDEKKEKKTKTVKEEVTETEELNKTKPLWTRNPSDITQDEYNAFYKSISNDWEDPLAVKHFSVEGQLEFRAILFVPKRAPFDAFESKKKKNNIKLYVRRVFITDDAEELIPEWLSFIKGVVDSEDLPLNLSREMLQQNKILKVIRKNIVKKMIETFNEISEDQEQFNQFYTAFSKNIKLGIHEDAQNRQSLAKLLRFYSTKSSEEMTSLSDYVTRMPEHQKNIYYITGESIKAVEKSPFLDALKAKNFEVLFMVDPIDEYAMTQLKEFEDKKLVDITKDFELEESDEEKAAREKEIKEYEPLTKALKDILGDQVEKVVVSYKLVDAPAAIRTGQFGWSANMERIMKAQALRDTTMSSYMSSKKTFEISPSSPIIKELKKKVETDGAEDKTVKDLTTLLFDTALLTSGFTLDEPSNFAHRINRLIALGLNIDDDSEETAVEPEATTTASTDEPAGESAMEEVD
# Protocol Summary: biochemical
# Format: binding
# Measurement Parameters: SC5314 lysate, 4.115 nM compound, raw

Compound | FP signal
CCON=C1/C=C/C=C\[C@H]2O[C@H]2C[C@@H](C)OC(=O)c2c(O)cc(O)c(Cl)c2C1 | 114
COc1ccc(CON=C2C=CC=CC3OC3CC(C)OC(=O)c3c(O)cc(O)cc3C2)cc1 (stereo not drawn) | 199
COc1ccccc1CON=C1C=CC=CC2OC2CC(C)OC(=O)c2c(O)cc(O)c(Cl)c2C1 (mixture of isomers) | 190
COc1ccc(CON=C2C=CC=CC3OC3CC(C)OC(=O)c3c(O)cc(O)c(Cl)c3C2)cc1 (mixture of isomers) | 205
CC1CC2OC2C=CC=CC(=NOCCN2CCCC2=O)Cc2c(Cl)c(O)cc(O)c2C(=O)O1 (stereo not drawn) [KF58333, reference compound] | 162
CC1CC2OC2C=CC=CC(=NOCc2cccc(F)c2)Cc2c(Cl)c(O)cc(O)c2C(=O)O1 (mixture of isomers) | 190
Cc1ccc(CON=C2C=CC=CC3OC3CC(C)OC(=O)c3c(O)cc(O)c(Cl)c3C2)cc1 (mixture of isomers) | 200
C[C@@H]1C[C@@H]2O[C@@H]2/C=C\C=C\C(=NOCc2ccccc2Cl)Cc2c(Cl)c(O)cc(O)c2C(=O)O1 | 207
CC1CC2OC2C=CC=CC(=NOCc2ccccc2)Cc2c(Cl)c(O)cc(O)c2C(=O)O1 (mixture of isomers) | 198
